# tested.on: ΔF508 CFTR (Homo sapiens, UniProt P13569, DEL508-508)
# Sequence (P13569 with tags, fused parts or gaps DEL508-508): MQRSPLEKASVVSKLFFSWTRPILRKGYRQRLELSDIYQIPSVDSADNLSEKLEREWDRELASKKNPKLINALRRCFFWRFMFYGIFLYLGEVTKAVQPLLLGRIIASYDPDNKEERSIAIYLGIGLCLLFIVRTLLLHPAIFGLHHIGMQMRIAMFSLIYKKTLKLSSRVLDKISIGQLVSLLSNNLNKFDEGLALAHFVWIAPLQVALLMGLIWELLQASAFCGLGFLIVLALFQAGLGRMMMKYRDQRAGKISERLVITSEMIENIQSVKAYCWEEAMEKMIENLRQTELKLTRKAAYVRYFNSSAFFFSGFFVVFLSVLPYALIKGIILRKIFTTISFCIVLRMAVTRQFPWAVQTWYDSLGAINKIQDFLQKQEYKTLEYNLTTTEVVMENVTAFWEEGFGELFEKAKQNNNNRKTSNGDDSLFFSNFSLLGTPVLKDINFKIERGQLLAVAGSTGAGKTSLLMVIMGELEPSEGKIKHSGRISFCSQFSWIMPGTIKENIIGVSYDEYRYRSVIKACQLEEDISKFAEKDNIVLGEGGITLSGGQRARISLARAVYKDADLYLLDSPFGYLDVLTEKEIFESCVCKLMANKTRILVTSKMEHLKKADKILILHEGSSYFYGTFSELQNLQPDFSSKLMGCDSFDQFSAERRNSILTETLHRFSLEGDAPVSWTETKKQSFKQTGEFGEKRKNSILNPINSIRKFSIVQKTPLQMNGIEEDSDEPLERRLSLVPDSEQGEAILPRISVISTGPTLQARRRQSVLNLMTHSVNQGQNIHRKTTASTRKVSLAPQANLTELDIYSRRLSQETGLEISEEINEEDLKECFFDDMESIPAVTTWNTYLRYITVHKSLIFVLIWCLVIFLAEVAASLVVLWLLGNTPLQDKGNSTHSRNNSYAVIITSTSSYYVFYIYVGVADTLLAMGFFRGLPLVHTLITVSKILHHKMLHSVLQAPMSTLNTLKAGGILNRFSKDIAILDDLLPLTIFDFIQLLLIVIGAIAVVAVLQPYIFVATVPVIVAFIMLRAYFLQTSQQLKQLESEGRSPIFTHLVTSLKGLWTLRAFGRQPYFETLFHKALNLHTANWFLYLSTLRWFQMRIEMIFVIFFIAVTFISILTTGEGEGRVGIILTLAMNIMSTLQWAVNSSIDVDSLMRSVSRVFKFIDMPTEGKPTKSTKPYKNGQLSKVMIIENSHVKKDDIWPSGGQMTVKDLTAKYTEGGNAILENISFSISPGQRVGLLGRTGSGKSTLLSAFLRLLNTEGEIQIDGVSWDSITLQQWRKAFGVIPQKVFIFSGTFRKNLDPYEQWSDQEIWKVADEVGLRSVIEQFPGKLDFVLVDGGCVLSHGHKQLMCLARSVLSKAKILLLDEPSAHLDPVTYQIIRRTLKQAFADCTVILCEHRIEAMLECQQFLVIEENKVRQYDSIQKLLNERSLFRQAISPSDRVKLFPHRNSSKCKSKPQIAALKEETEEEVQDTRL
# procedure.summary: Corrector activity, YFP halide (iodide) quenching assay in FRT cells expressing ΔF508 CFTR
# Format: cell-based
# Design: expressed in transfected cells; host or cells: Fischer rat thyroid (FRT) cells
# stated.conditions: FRT cells ΔF508 CFTR/YFP, 24 hours with compound at 37° C., forskolin and genistein; read-out: Corrector EC50
pEC50: −log10 of the molar value.
property.label: pEC50

INSERT INTO assay_data (molecule, tested_on, property_label, endpoint_value) VALUES
  ('Nc1ncnc2c1c(Sc1cccc(Cl)c1)nn2C1CNC1', 'ΔF508 CFTR (Homo sapiens, UniProt P13569, DEL508-508)', 'pEC50', '< 4.82'),
  ('CC(=O)N(C)c1ncnc2c1c(-c1ccc(Cl)cc1)nn2C(C)(C)C', 'ΔF508 CFTR (Homo sapiens, UniProt P13569, DEL508-508)', 'pEC50', '< 4.82'),
  ('Cc1ccccc1Oc1nn(C(C)(C)C)c2ncnc(N)c12', 'ΔF508 CFTR (Homo sapiens, UniProt P13569, DEL508-508)', 'pEC50', '< 4.82'),
  ('CCn1nc([S+]([O-])c2cccc(F)c2)c2c(N)ncnc21 (stereo not shown)', 'ΔF508 CFTR (Homo sapiens, UniProt P13569, DEL508-508)', 'pEC50', '< 4.82'),
  ('Nc1ncnc2c1c(-c1ccc(Cl)cc1)nn2CC(F)F', 'ΔF508 CFTR (Homo sapiens, UniProt P13569, DEL508-508)', 'pEC50', '5.00 to 5.30'),
  ('CC(=O)N1CC(n2nc(Sc3cccc(Cl)c3)c3c(N)ncnc32)C1', 'ΔF508 CFTR (Homo sapiens, UniProt P13569, DEL508-508)', 'pEC50', '< 4.82'),
  ('CC(C)(C)n1nc(-c2ccc(Cl)cc2)c2c(NC(=O)Nc3ccccc3)ncnc21', 'ΔF508 CFTR (Homo sapiens, UniProt P13569, DEL508-508)', 'pEC50', '< 4.82'),
  ('CCn1nc(Sc2cccc(F)c2)c2c(N)ncnc21', 'ΔF508 CFTR (Homo sapiens, UniProt P13569, DEL508-508)', 'pEC50', '5.30 to 5.70'),
  ('CC(C)(C)n1nc(Oc2ccc(Cl)cc2)c2c(N)ncnc21', 'ΔF508 CFTR (Homo sapiens, UniProt P13569, DEL508-508)', 'pEC50', '< 4.82'),
  ('Nc1ncnc2c1c(-c1ccc(Cl)cc1)nn2C1CNC1', 'ΔF508 CFTR (Homo sapiens, UniProt P13569, DEL508-508)', 'pEC50', '< 4.82'),
  ('CCn1nc([S+]([O-])c2ccc(F)cc2)c2c(N)ncnc21 (stereo not shown)', 'ΔF508 CFTR (Homo sapiens, UniProt P13569, DEL508-508)', 'pEC50', '< 4.82'),
  ('Nc1ncnc2c1c([S+]([O-])c1cccc(Cl)c1)nn2C1CNC1 (stereo not shown)', 'ΔF508 CFTR (Homo sapiens, UniProt P13569, DEL508-508)', 'pEC50', '< 4.82'),
  ('CCn1cc(-c2ccc(Cl)cc2)c2c(NC(=O)c3ccc(F)cc3)ncnc21', 'ΔF508 CFTR (Homo sapiens, UniProt P13569, DEL508-508)', 'pEC50', '> 5.70'),
  ('CC(C)(C)C1N=C(c2ccc(Cl)cc2)c2c(NC(=O)C3CCC3)ncnc21 (stereo not shown)', 'ΔF508 CFTR (Homo sapiens, UniProt P13569, DEL508-508)', 'pEC50', '5.30 to 5.70'),
  ('CC(C)(C)n1nc(Oc2nccc3ccccc23)c2c(N)ncnc21', 'ΔF508 CFTR (Homo sapiens, UniProt P13569, DEL508-508)', 'pEC50', '< 4.82'),
  ('CC(C)N1CC(n2nc(Sc3cccc(Cl)c3)c3c(N)ncnc32)C1', 'ΔF508 CFTR (Homo sapiens, UniProt P13569, DEL508-508)', 'pEC50', '< 4.82'),
  ('CC(=O)N1CC(n2nc(Oc3cccc(Cl)c3)c3c(N)ncnc32)C1', 'ΔF508 CFTR (Homo sapiens, UniProt P13569, DEL508-508)', 'pEC50', '< 4.82'),
  ('CC(C)(C)n1nc(Oc2ccccc2)c2c(N)ncnc21', 'ΔF508 CFTR (Homo sapiens, UniProt P13569, DEL508-508)', 'pEC50', '< 4.82'),
  ('CC(C)(C)C(=O)Nc1ncnc2c1c(Oc1cccc(Cl)c1)nn2C(C)(C)C', 'ΔF508 CFTR (Homo sapiens, UniProt P13569, DEL508-508)', 'pEC50', '< 4.82');
